target: D(3) dopamine receptor (Homo sapiens) (UniProt P35462); assay: qHTS of D3 Dopamine Receptor Agonist: qHTS; details: D3R DiscoveRx beta-arrestin cells, luminescence, 90 min; stronger effect = higher value; also: 0% is about no effect
Sequence (P35462 whole entry, looked up): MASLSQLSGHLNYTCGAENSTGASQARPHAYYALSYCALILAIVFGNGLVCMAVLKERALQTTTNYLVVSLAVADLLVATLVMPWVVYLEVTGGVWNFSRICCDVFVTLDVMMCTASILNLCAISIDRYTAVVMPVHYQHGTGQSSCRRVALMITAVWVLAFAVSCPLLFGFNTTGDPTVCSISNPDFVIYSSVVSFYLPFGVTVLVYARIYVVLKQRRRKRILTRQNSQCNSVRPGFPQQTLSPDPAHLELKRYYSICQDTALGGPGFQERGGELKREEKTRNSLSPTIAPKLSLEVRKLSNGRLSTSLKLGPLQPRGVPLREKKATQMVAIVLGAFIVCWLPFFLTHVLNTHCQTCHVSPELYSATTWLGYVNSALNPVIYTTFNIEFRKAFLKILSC
In all, about 410,000 compounds went through this assay and about 2,400 (0.59%) were called active. The full list was thinned out, with actives kept by preference.
Recorded max activation by entry

{"molecule": "CCC(=O)N1CCc2cc(S(=O)(=O)NC(Cc3ccccc3)C(=O)NCc3ccc(C)cc3)ccc21 (configuration not stated)", "max activation": "3.11% (inactive)"}
{"molecule": "Oc1ccc(Cl)c2c1CCC2", "max activation": "-6.75% (inactive)"}
{"molecule": "CC(=O)O[C@]1(C(C)=O)CC[C@H]2[C@@H]3CCC4=CC(=O)CC[C@]4(C)[C@@]3(F)[C@@H](O)C[C@@]21C", "max activation": "9.73% (inactive)"}
{"molecule": "O=C1OC(/C=C/c2ccccc2)=NC/1=C/c1ccco1", "max activation": "30.1% (active)"}
{"molecule": "COc1ccc(NC(=O)c2sc3nc(-c4cc5cccc(OC)c5oc4=O)[nH]c(=O)c3c2C)cc1", "max activation": "-8.2% (inactive)"}
{"molecule": "O=C(CCn1ccc2cc(S(=O)(=O)N3CCCC3)ccc21)NCc1cccc(Cl)c1", "max activation": "-1.61% (inactive)"}
{"molecule": "COc1ccc(CNC(=O)CCc2c(C)nn(-c3ccc(N4CCCC4)nn3)c2C)cc1", "max activation": "9.29% (inactive)"}
{"molecule": "O=C(CC[C@H]1O[C@@H](n2ccc(=O)[nH]c2=O)[C@H](O)[C@@H]1O)N[C@H](Cc1ccccc1)C(=O)NCCCN1CCCC1=O", "max activation": "-10.2% (inactive)"}
{"molecule": "CCOc1cccc(NC(=O)c2ccc(F)c(S(=O)(=O)N(CC)c3cccc(C)c3)c2)c1", "max activation": "6.21% (inactive)"}
{"molecule": "COc1cccc(C(=O)N(Cc2cccc(Cl)c2)Cc2ccco2)c1", "max activation": "-11.4% (inactive)"}
{"molecule": "Cc1cccc(NC(=O)Cn2c(=O)n(CCC(C)C)c(=O)c3cccnc32)c1", "max activation": "-14.3% (inactive)"}
{"molecule": "O=C(CC[C@H]1O[C@@H](n2ccc(=O)[nH]c2=O)[C@H](O)[C@@H]1O)N[C@H](Cc1ccccc1)C(=O)NCc1ccco1", "max activation": "13.5% (inactive)"}
{"molecule": "O=C(COC(=O)c1cc(=O)[nH]c2ccccc12)Nc1nc(-c2cccc(Br)c2)cs1", "max activation": "38.6% (active)"}
{"molecule": "O=C(O)CCC(=O)O", "max activation": "17.7% (inactive)"}
{"molecule": "CCN=C1S/C(=C\\c2cc(Br)ccc2OCC(=O)OCC)C(=O)N1CC", "max activation": "5.26% (inactive)"}
{"molecule": "Cc1c(-c2nsc(NC(=O)c3cccc(Cl)c3)n2)nnn1-c1ccccc1C(F)(F)F", "max activation": "-0.907% (inactive)"}
{"molecule": "Cc1ccc(C(=O)Nc2ccc(OCc3cc(=O)n4c5c(sc4n3)CCCC5)cc2)cc1", "max activation": "-4.47% (inactive)"}
{"molecule": "Cc1ccc(-c2ncc(Cl)cc2-c2ccc(S(C)(=O)=O)cc2)cn1", "max activation": "3.29% (inactive)"}
{"molecule": "Cc1ccc(NC(=O)[C@H](Cc2ccccc2)NC(=O)CC[C@H]2O[C@@H](n3ccc(=O)[nH]c3=O)[C@H](O)[C@@H]2O)cc1C", "max activation": "63.9% (active)"}
{"molecule": "Cc1ccc(OCCSc2nc(C)c(Cc3ccccc3)c(=O)[nH]2)cc1", "max activation": "4.35% (inactive)"}
{"molecule": "Cc1ccccc1OCC(=O)Nc1c(C(=O)Nc2ccccc2F)oc2ccccc12", "max activation": "-10.6% (inactive)"}
{"molecule": "CCOC(=O)c1cc(OC(=O)c2ccccc2Cl)n(-c2ccccc2)n1", "max activation": "-8.96% (inactive)"}
{"molecule": "O=C(COC(=O)c1cc(=O)[nH]c2ccccc12)NCc1cccc(Cl)c1", "max activation": "3.7% (inactive)"}
{"molecule": "O=C(CSc1nc2ccccc2c(=O)[nH]1)Nc1nc(-c2ccc(Br)cc2)cs1", "max activation": "37.7% (active)"}
{"molecule": "Cc1ccc(CNC(=O)C2CCCN2C(=O)NCc2ccccc2)cc1 (configuration not stated)", "max activation": "4.63% (inactive)"}
{"molecule": "N#Cc1ccc(-c2ccc(Cl)cc2)nc1Oc1ccc(F)cc1", "max activation": "34.7% (active)"}
{"molecule": "Cc1cccc(C(CC(=O)NCC2(c3ccccc3)CCCC2)c2ccccc2)c1O (configuration not stated)", "max activation": "-11.1% (inactive)"}
{"molecule": "COc1ccc(NC(=O)CSc2nc3ccccc3[nH]2)cc1", "max activation": "0.0768% (inactive)"}
{"molecule": "CN[C@@H]1[C@@H](O)[C@@H](O[C@@H]2[C@H](O)[C@H](O[C@H]3OC(CN)=CC[C@H]3N)[C@@H](N)C[C@H]2N)OCC1(C)O (some centres not stated)", "max activation": "-3.05% (inactive)"}
{"molecule": "O=C(Nc1ncccc1O)c1ccc(S(=O)(=O)N2CCCC2)cc1", "max activation": "1.73% (inactive)"}
{"molecule": "Cc1noc(C)c1C(=O)NC(C)c1ccc2c(c1)OCO2 (configuration not stated)", "max activation": "17.7% (inactive)"}
{"molecule": "CCOC(=O)c1cc(-c2sc(NC(=O)c3ccccc3)nc2C)n(Cc2ccccc2)n1", "max activation": "8.04% (inactive)"}
